Measured pIC50 by item
tested_system: KRAS-G12V (Homo sapiens, UniProt P01116, G12V)
Sequence (P01116 with tags, fused parts or gaps isoform P01116-2 G12V): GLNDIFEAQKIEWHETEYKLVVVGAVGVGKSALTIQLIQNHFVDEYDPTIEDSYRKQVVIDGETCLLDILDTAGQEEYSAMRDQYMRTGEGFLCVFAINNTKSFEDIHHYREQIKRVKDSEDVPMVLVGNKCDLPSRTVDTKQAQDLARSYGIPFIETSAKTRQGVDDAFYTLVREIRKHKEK
assay_protocol: SOS-catalyzed nucleotide exchange assay (Procedure A, TR-FRET), KRAS-G12V
Assay type: biochemical
condition_details: nucleotide exchange, read-out: KRAS G12V GNE IC50
Bear in mind: pIC50 is minus log10 of a mol/L concentration; give just that figure.

| line_notation | pIC50 |
| --- | --- |
| C[C@@]1(O)COCCN(c2nc(OC[C@]3(CN4CC5(CC5)C4)CC3(F)F)nc3sc4c(-c5c(C6(F)CC6)c(Cl)cc6[nH]ncc56)nccc4c23)C1 | 7.73 |
| Cc1cc2cnn(C)c2c(-c2nccc3c2sc2nc(OC[C@@]45CCCN4C[C@H](F)C5)nc(N4CCOC[C@@](C)(O)C4)c23)c1C(F)(F)F | 5.37 |
| Cc1cc2[nH]ncc2c(-c2nccn3c2cc2nc(OC[C@]4(CN(C)C)CC4(F)F)nc(N4CCOC[C@@](C)(O)C4)c23)c1C1CC1 | 7.00 |
| C[C@@]1(O)COCCN(c2nc(OC[C@@]34CCCN3C[C@@]3(CC3(F)F)C4)nc3sc4c(-c5c(C6CC6)c(Cl)cc6[nH]ncc56)nccc4c23)C1 | 7.92 |
| CO[C@H]1CN2CCC[C@@]2(COc2nc(N3CCOC[C@@](C)(O)C3)c3c(n2)sc2c(-c4c(C5CC5)c(Cl)cc5[nH]ncc45)nccc23)C1 | 7.72 |

Proceeding to the next compound to report its pIC50.
Field request: pIC50 | item: Cc1cc2[nH]nc(C#N)c2c(-c2nccc3c2sc2nc(OC[C@@]45CCCN4C[C@H](F)C5)nc(N4CCOC[C@@](C)(O)C4)c23)c1C(F)(F)F
5.67

----------
Catalogue of pIC50 readings, one per entry.
tested_system: KRAS-G12C (C51S/C80L/C118S) (Homo sapiens, UniProt P01116, C118S/C51S/C80L/G12C)
Sequence (P01116 with tags, fused parts or gaps isoform P01116-2 G12C/C51S/C80L/C118S): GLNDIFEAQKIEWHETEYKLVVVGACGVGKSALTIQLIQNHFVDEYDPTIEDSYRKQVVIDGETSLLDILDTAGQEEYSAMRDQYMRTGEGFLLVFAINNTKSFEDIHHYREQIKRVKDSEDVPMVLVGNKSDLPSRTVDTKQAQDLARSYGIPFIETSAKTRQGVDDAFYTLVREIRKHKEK
assay_protocol: SOS-catalyzed nucleotide exchange assay (Procedure A, TR-FRET), KRAS-G12C
Format: biochemical
condition_details: nucleotide exchange, Procedure A; read-out: KRAS G12C GNE IC50
In textbook form, pIC50 equals minus log to base ten of the concentration in mol/L.

Guide cases for pIC50, answers given:
| compound | pIC50 |
| --- | --- |
| Cc1cc2[nH]ncc2c(-c2nccc3c2sc2nc(OC[C@@]45CCCN4C[C@H](F)C5)nc(N4CCOC[C@@](C)(O)C4)c23)c1C1CCCC1 | 6.36 |
| C[C@@]1(O)COCCN(c2nc(OC[C@@]34CCCN3C[C@H](F)C4)nc3sc4c(-c5c(C(F)(F)F)c(Cl)cc6[nH]ncc56)nccc4c23)C1 | 7.46 |
| Cc1cc2c3c(N4CCOC[C@@](C)(O)C4)nc(OC[C@@]45CCCN4C[C@H](F)C5)nc3n(C)c2c(-c2c(C(F)(F)F)c(C)cc3[nH]ncc23)n1 (single isomer, unassigned) | 6.56 |

So what's the measured pIC50 for this one? Cc1cc2[nH]ncc2c(-c2nccc3c2sc2nc(OC[C@@]45CCCN4C[C@H](F)C5)nc(NC4CCOC4)c23)c1C(F)(F)F (stereo partly drawn)
6.25

Quick one: pIC50 for C#Cc1c(F)sc2cc3[nH]ncc3c(-c3nccc4c3sc3nc(OC[C@@]56CCCN5C[C@H](F)C6)nc(N5CCOC[C@@](C)(O)C5)c34)c12 ?
7.45

pIC50 for CN(C)C[C@@]1(COc2nc(N3CCOC[C@@](C)(O)C3)c3c(n2)sc2c(-c4c(C5CC5)c(C(F)(F)F)cc5[nH]ncc45)nccc23)CC1(F)F ?
8.45
